target: HBV polymerase (Hepatitis B virus genotype D subtype ayw); construct: made in house; host or cells: E. coli; assay: Inhibitory activities against HBV polymerase (reverse transcriptase activity) in vitro; type: biochemical; conditions: 1 μg/ml; read-out: Inhibitory activity of HBV-RT (%)
Can you tell me inhibition at 1 µg/mL for the items I'm about to list?
Units required after the number.

smiles=CC(C)Nc1cccnc1N1CCN(C(=O)c2ccc(C(=O)NCCc3c[nH]cn3)cn2)CC1 reported=70%

I need inhibition at 1 µg/mL for every entry listed below, if you could help.
1. Cc1cc(NC(=O)c2ccc(C(=O)N3CCN(c4ncccc4NC(C)C)CC3)nc2)n[nH]1
2. CCNc1cccnc1N1CCN(C(=O)c2ccc(C(=O)NCc3ccccn3)cn2)CC1

1: 70%; 2: 70%

---

target: HBV polymerase (Hepatitis B virus genotype D subtype ayw, UniProt P03156); construct: made in house; host or cells: E. coli; assay: Inhibitory activities against HBV polymerase (reverse transcriptase activity) in vitro; format: biochemical; settings: 0.01 μg/ml; read-out: Inhibitory activity of HBV-RT (%)
Sequence (P03156 whole entry): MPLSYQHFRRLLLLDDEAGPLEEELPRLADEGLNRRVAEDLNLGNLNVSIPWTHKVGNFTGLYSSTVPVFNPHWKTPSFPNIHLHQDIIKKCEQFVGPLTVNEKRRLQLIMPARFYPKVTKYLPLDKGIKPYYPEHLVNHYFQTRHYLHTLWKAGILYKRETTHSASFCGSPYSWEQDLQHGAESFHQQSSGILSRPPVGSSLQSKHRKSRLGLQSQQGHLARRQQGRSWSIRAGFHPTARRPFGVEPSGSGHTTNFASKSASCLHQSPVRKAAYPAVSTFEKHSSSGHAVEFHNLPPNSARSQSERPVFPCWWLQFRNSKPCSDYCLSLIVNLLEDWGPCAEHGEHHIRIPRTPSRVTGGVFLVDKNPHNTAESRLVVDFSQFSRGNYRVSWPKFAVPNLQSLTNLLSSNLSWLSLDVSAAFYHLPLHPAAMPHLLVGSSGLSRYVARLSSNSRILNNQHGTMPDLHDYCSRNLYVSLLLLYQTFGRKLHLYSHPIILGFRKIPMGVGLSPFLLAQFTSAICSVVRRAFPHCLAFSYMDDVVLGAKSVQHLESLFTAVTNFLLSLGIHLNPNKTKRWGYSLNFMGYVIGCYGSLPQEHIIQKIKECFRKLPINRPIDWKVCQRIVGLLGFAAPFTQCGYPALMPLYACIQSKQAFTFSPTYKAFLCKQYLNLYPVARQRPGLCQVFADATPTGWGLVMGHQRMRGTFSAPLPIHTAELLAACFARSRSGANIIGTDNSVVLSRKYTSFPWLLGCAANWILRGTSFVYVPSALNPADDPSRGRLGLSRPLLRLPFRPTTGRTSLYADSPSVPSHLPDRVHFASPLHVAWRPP
Can you tell me inhibition at 0.01 µg/mL for the items I'm about to list?
Answers are plain numbers, in %.

Here's what some known entries look like.
compound="CC(C)CNc1cccnc1N1CCN(C(=O)c2ccc(C(=O)NC3CC3)cn2)CC1 [Exam. 36]" reported=60
compound="Cc1cc(NC(=O)c2ccc(C(=O)N3CCN(c4ncccc4NC(C)C)CC3)nc2)no1 [Exam. 67]" reported=25
compound="CC(C)Nc1cccnc1N1CCN(C(=O)c2ccc(C(=O)NCc3ccco3)cn2)CC1 [Exam. 79]" reported=54
compound="CC(C)Nc1cccnc1N1CCN(C(=O)c2ccc(C(=O)N(CCO)c3ccccc3)cn2)CC1 [Exam. 17]" reported=42

I need inhibition at 0.01 µg/mL for every entry listed below, if you could help.
1. CC(C)Nc1cccnc1N1CCN(C(=O)c2ccc(C(=O)NCCc3ccccn3)cn2)CC1 [Exam. 82]
2. CC(C)Nc1cccnc1N1CCN(C(=O)c2ccc(C(=O)Nc3ccccn3)cn2)CC1 [Exam. 70]
3. CC(C)Nc1cccnc1N1CCN(C(=O)c2ccc(C(=O)N[C@H](C)CO)cn2)CC1 [Exam. 3]
4. CC(C)CNc1cccnc1N1CCN(C(=O)c2ccc(C(=O)Nc3ncccc3O)cn2)CC1 [Exam. 86]
5. CC[C@H](CO)NC(=O)c1ccc(C(=O)N2CCN(CCO)CC2)nc1 [Exam. 94]
6. CCNc1cccnc1N1CCN(C(=O)c2ccc(C(=O)NCCO)cn2)CC1 [Exam. 18]
7. Cc1ncc(CO)c(CNC(=O)c2ccc(C(=O)N3CCN(c4ncccc4NC(C)C)CC3)nc2)c1O [Exam. 78]

1: 24; 2: 26; 3: 41; 4: 13; 5: 20; 6: 52; 7: 15

I need inhibition at 0.01 µg/mL for every entry listed below, if you could help.
1. CC(C)Nc1cccnc1N1CCN(C(=O)c2ccc(C(=O)NC3CCSC3=O)cn2)CC1 (centres unmarked) [Exam. 57]
2. CC(C)Nc1cccnc1N1CCN(C(=O)c2ccc(C(=O)NCC3CCCO3)cn2)CC1 (centres unmarked) [Exam. 53]

[23, 52]

I need inhibition at 0.01 µg/mL for every entry listed below, if you could help.
1. O=C(NCCO)c1ccc(C(=O)N2CCN(CCO)CC2)nc1 [Exam. 93]
2. CC(C)Nc1cccnc1N1CCN(C(=O)c2ccc(C(=O)NCCO)cn2)CC1 [Exam. 1]
3. CC(C)Nc1cccnc1N1CCN(C(=O)c2ccc(C(=O)NCc3ccccn3)cn2)CC1 [Exam. 73]
4. CC[C@H](CO)NC(=O)c1ccc(C(=O)N2CCN(c3ncccc3NC(C)C)CC2)nc1 [Exam. 7]

30
30
53
53

I need inhibition at 0.01 µg/mL for every entry listed below, if you could help.
1. CC(C)CNc1cccnc1N1CCN(C(=O)c2ccc(C(=O)NCCO)cn2)CC1 [Exam. 22]
2. CCNc1cccnc1N1CCN(C(=O)c2ccc(C(=O)NCCOC)cn2)CC1 [Exam. 40]
3. O=C(NCCN1CCOCC1)c1ccc(C(=O)N2CCN(CCO)CC2)nc1 [Exam. 102]
4. CC(C)Nc1cccnc1N1CCN(C(=O)c2ccc(C(=O)Nc3cnccn3)cn2)CC1 [Exam. 72]
5. CC(C)CNC(=O)c1ccc(C(=O)N2CCN(c3ncccc3NC(C)C)CC2)nc1 [Exam. 30]
6. CC(C)Nc1cccnc1N1CCN(C(=O)c2ccc(C(=O)N(CCO)CCO)cn2)CC1 [Exam. 16]

1. 54
2. 36
3. 32
4. 16
5. 61
6. 51

I need inhibition at 0.01 µg/mL for every entry listed below, if you could help.
1. CC(C)NC(=O)c1ccc(C(=O)N2CCN(c3ncccc3NC(C)C)CC2)nc1 [Exam. 24]
2. CC(C)Nc1cccnc1N1CCN(C(=O)c2ccc(C(=O)NCc3cccnc3)cn2)CC1 [Exam. 76]

1. 23
2. 30

I need inhibition at 0.01 µg/mL for every entry listed below, if you could help.
1. CC(C)Nc1cccnc1N1CCN(C(=O)c2ccc(C(=O)NCCOCCO)cn2)CC1 [Exam. 48]
2. COC(CN(C)C(=O)c1ccc(C(=O)N2CCN(c3ncccc3NC(C)C)CC2)nc1)OC [Exam. 50]
3. CC(C)Nc1cccnc1N1CCN(C(=O)c2ccc(C(=O)NC(C)(C)C)cn2)CC1 [Exam. 28]
4. CCNc1cccnc1N1CCN(C(=O)c2ccc(C(=O)NC(C)(C)CO)cn2)CC1 [Exam. 19]

52
15
61
32

---

target: HIV reverse transcriptase (Human immunodeficiency virus type 1 group M subtype B); construct: purchased Boehringer Mannheim; assay: In vitro inhibition test against HIV reverse transcriptase; type: biochemical; conditions: 1 μg/ml; read-out: Inhibitory activity of HIV-RT (%)
Label rule met for high-side inhibition at 1 µg/mL (at or above 70%) and rule not met for low-side inhibition at 1 µg/mL (below it).

Solved entries (count: 3):
smiles=CC(C)Nc1cccnc1N1CCN(C(=O)c2ccc(C(=O)NCCOCCO)cn2)CC1 class_assignment="rule not met"
smiles=CC(C)Nc1cccnc1N1CCN(C(=O)c2ccc(C(=O)Nc3cnccn3)cn2)CC1 class_assignment="rule met"
smiles=COC(CN(C)C(=O)c1ccc(C(=O)N2CCN(c3ncccc3NC(C)C)CC2)nc1)OC class_assignment="rule not met"

Assess whether reported inhibition at 1 µg/mL for O=C(NCCN1CCOCC1)c1ccc(C(=O)N2CCN(CCO)CC2)nc1 sits at 70% or higher. rule not met

Check Cc1cc(NC(=O)c2ccc(C(=O)N3CCN(c4ncccc4NC(C)C)CC3)nc2)n[nH]1 too. rule met

---

biological target: HIV reverse transcriptase (Human immunodeficiency virus type 1 group M subtype B, UniProt P04585); construct: purchased Boehringer Mannheim; experiment: In vitro inhibition test against HIV reverse transcriptase; assay type: biochemical; conditions: 0.1 μg/ml; read-out: Inhibitory activity of HIV-RT (%)
Can you tell me inhibition at 0.1 µg/mL for the items I'm about to list?
Numbers only, in %.

Here's what some known entries look like.
compound=COC(CNC(=O)c1ccc(C(=O)N2CCN(c3ncccc3NC(C)C)CC2)nc1)OC reported=30
compound=CC(C)CNc1cccnc1N1CCN(C(=O)c2ccc(C(=O)NC(C)C)cn2)CC1 reported=45
compound=CC(C)Nc1cccnc1N1CCN(C(=O)c2ccc(C(=O)NCCCN3CCCC3=O)cn2)CC1 reported=45
compound=CC(C)Nc1cccnc1N1CCN(C(=O)c2ccc(C(=O)NC(C)(C)CO)cn2)CC1 reported=48
compound=COCCNC(=O)c1ccc(C(=O)N2CCN(c3ncccc3NC(C)C)CC2)nc1 reported=65

I need inhibition at 0.1 µg/mL for every entry listed below, if you could help.
1. Cc1ncc(CO)c(CNC(=O)c2ccc(C(=O)N3CCN(c4ncccc4NC(C)C)CC3)nc2)c1O
2. CCNc1cccnc1N1CCN(C(=O)c2ccc(C(=O)NCc3ccccn3)cn2)CC1
3. CC(C)Nc1cccnc1N1CCN(C(=O)c2ccc(C(=O)NCCc3ccccn3)cn2)CC1
4. CC(C)Nc1cccnc1N1CCN(C(=O)c2ccc(C(=O)NC(C)(C)C)cn2)CC1
5. CC(C)Nc1cccnc1N1CCN(C(=O)c2ccc(C(=O)NCCN3CCOCC3)cn2)CC1
6. CC(C)Nc1cccnc1N1CCN(C(=O)c2ccc(C(=O)N(CCO)CCO)cn2)CC1
7. CC(C)Nc1cccnc1N1CCN(C(=O)c2ccc(C(=O)NCc3cccnc3)cn2)CC1
8. CC(C)Nc1cccnc1N1CCN(C(=O)c2ccc(C(=O)NCCCn3ccnc3)cn2)CC1

1: 52; 2: 61; 3: 65; 4: 45; 5: 15; 6: 47; 7: 57; 8: 30

I need inhibition at 0.1 µg/mL for every entry listed below, if you could help.
1. CC(C)Nc1cccnc1N1CCN(C(=O)c2ccc(C(=O)NCc3ccco3)cn2)CC1
2. O=C(NCc1ccco1)c1ccc(C(=O)N2CCN(CCO)CC2)nc1
3. COCCNC(=O)c1ccc(C(=O)N2CCN(CCO)CC2)nc1
4. COCCN(CCOC)C(=O)c1ccc(C(=O)N2CCN(CCO)CC2)nc1
5. O=C(NCCN1CCOCC1)c1ccc(C(=O)N2CCN(CCO)CC2)nc1
6. CC(C)NC(=O)c1ccc(C(=O)N2CCN(c3ncccc3N)CC2)nc1
7. COCCN(CCOC)C(=O)c1ccc(C(=O)N2CCN(c3ncccc3NC(C)C)CC2)nc1

1: 20; 2: 65; 3: 61; 4: 40; 5: 25; 6: 54; 7: 20

I need inhibition at 0.1 µg/mL for every entry listed below, if you could help.
1. Nc1cccnc1N1CCN(C(=O)c2ccc(C(=O)NC3CCOC3=O)cn2)CC1 (stereo not drawn)
2. CC(C)Nc1cccnc1N1CCN(C(=O)c2ccc(C(=O)NCc3ccncc3)cn2)CC1
3. COCCCNC(=O)c1ccc(C(=O)N2CCN(c3ncccc3NCC(C)C)CC2)nc1
4. CC(C)Nc1cccnc1N1CCN(C(=O)c2ccc(C(=O)NC3CCOC3=O)cn2)CC1 (stereo not drawn)

[45, 59, 53, 31]
